Every entry's value here was drawn from patent US10479780B2.

Kindly state pIC50 for each of the entries shown.
Target: human Lck enzyme (Homo sapiens, UniProt P06239)
Construct: purchased Carna Biosciences, Inc. 08-170
Sequence (P06239 whole entry): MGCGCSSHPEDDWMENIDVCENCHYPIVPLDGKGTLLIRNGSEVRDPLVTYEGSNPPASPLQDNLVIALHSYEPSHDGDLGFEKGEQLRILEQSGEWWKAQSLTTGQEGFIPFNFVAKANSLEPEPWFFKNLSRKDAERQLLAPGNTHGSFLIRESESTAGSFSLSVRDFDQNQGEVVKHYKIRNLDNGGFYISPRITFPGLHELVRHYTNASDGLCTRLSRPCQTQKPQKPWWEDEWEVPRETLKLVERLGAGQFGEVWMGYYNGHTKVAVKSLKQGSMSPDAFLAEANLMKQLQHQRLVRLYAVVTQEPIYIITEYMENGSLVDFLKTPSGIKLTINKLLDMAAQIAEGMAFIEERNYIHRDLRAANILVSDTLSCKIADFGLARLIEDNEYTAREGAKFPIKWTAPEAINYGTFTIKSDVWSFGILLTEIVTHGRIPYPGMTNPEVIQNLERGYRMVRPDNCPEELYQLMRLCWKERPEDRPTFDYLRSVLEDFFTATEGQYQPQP
Assay: Lck enzyme inhibitory activity (time-resolved fluorometry, biotinylated peptide phosphorylation)
Format: biochemical
Conditions: read-out: LCK_IC50
One number for each entry, as −log10 of the molar value.

Check out these entries, answers already filled in.
{"molecule": "Cc1cc(Oc2c(F)cccc2F)ncc1-n1ncc(C(=O)c2cc3cc(OC4CCN(C5CCCC5)CC4)c(-c4ccccc4Cl)cc3[nH]2)c1N [Example 5-1-288]", "result": 7.77}
{"molecule": "Cc1cc(Oc2ccccc2F)ccc1-n1ncc(C(=O)c2cc3cc(OCC(F)F)c(N4CC5(CCCC5)NS4(=O)=O)cc3[nH]2)c1N [Example 5-1-323]", "result": 7.40}
{"molecule": "Cc1cc(-n2ncc(C(=O)c3cc4cc(OCC(F)F)c(C5CCOCC5)cc4[nH]3)c2N)ccc1Oc1ccccc1F [Example 5-1-258]", "result": 6.14}
{"molecule": "Cc1cc(Oc2ccccc2F)ncc1-n1ncc(C(=O)c2cc3cc(F)c(NS(=O)(=O)NC(C)C)cc3[nH]2)c1N [Example 5-1-021]", "result": 7.14}
{"molecule": "Cc1ccccc1-c1cc2[nH]c(C(=O)c3cnn(-c4cnc(Oc5c(F)cccc5F)cc4C)c3N)cc2cc1OC1CCN(C2CCCC2)CC1 [Example 5-1-337]", "result": 7.74}

Requested read-out: pIC50. Entry: Cc1cc(Oc2ccccc2F)ccc1-n1ncc(C(=O)c2cc3cc(F)c(N4C(=O)NC5(CC5)C4=O)cc3[nH]2)c1N [Example 5-1-375]
8.15

###

Biological target: human Yes1 enzyme (Homo sapiens)
Construct: made in house
Sequence (P07947 whole entry): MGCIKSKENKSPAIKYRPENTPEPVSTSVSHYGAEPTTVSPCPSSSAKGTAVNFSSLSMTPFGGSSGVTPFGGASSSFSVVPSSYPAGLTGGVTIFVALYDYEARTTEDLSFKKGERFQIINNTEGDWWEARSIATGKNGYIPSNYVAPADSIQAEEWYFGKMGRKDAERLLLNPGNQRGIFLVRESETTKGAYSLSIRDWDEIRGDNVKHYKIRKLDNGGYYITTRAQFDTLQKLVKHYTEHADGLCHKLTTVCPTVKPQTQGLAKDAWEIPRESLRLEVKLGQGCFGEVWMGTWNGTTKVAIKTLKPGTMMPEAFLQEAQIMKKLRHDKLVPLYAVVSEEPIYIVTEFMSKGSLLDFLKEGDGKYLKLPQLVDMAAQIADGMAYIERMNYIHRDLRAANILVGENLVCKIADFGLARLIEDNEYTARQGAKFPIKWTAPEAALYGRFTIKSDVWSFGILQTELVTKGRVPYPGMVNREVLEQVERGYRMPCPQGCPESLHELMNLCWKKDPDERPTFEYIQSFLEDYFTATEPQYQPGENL
Assay: Yes1 enzyme inhibitory activity (time-resolved fluorometry, biotinylated peptide phosphorylation)
Assay type: biochemical
Settings: biotinylated peptide phosphorylation, read-out: YES_IC50
Kindly state IC50 for each of the entries shown.
Answers are plain numbers, in nM.

{"chem_smiles": "Cc1cc(-n2ncc(C(=O)c3cc4cc(F)c(NS(N)(=O)=O)cc4[nH]3)c2N)ccc1Oc1ccccc1F", "IC50, nM": 1.4}
{"chem_smiles": "Cc1cc2cc(C(=O)c3cnn(-c4cnc(Oc5cccc(Cl)c5)cc4C)c3N)[nH]c2cc1N1CCCS1(=O)=O", "IC50, nM": 5.7}
{"chem_smiles": "Cc1cc(Oc2ccccc2F)ncc1-n1ncc(C(=O)c2cc3cc(OCC(F)F)c(N4CCCS4(=O)=O)cc3[nH]2)c1N", "IC50, nM": 1.6}

Shift focus to the following entry.
Lab note: need IC50 for `Cc1cc(-n2ncc(C(=O)c3cc4cc(C)c(N5C(=O)NC6(CCCC6)C5=O)cc4[nH]3)c2N)ccc1Oc1ccccc1F` on human Yes1 enzyme (Homo sapiens), anyone have it?
27

###

Molecular target: human Lck enzyme (Homo sapiens)
Construct: purchased Carna Biosciences, Inc. 08-170
Test: Lck enzyme inhibitory activity (time-resolved fluorometry, biotinylated peptide phosphorylation)
Assay type: biochemical
Conditions: biotinylated peptide phosphorylation, read-out: LCK_IC50
Method: 3. Lck Enzyme Inhibitory Activity Lck inhibitory activity was determined based on activity of inhibiting phosphorylation reaction of a biotinylated peptide (EGPWLEEEEEAYGWMDF) using a human Lck enzyme (manufactured by Carna Biosciences, Inc., cat 08-170). The phosphorylated biotinylated peptide was detected by time-resolved fluorometry using an anti-phosphorylated tyrosine antibody conjugated to europium cryptate, and streptavidin conjugated to XL665, an allophycocyanin derivative. […]
Kindly state pIC50 for each of the entries shown.
Answers are plain numbers, as −log10 of the molar value.

For each of the items listed, what is its pIC50?
1. Cc1cc(-n2ncc(C(=O)c3cc4cc(C)c(N5C(=O)NC6(CCN(C(=O)OC(C)(C)C)CC6)C5=O)cc4[nH]3)c2N)ccc1Oc1ccccc1F [Example 5-1-471]
2. Cc1cc2cc(C(=O)c3cnn(-c4cnc(Oc5ccccc5F)cc4C)c3N)[nH]c2cc1NS(=O)(=O)c1cc(Cl)cc(C#N)c1 [Example 5-1-498]
3. Cc1cc(Oc2ccccc2F)ncc1-n1ncc(C(=O)c2cc3cc(F)c(NS(=O)(=O)c4cccc(C#N)n4)cc3[nH]2)c1N [Example 5-1-539]

1. 6.01
2. 6.38
3. 6.66
